experiment: Stability in human liver microsomes assessed as compound remaining at 0.1 mg/ml after 60 mins; type: ADME, Microsome; settings: read-out: Stability
OBSERVATION_TYPE: remaining at 1 h

[[record]]
smiles_str = "CCCCCn1c(=O)sc2cc(C(=O)C34CC5CC(CC(C5)C3)C4)ccc21"
observation_type = "remaining at 1 h"
readout_value = "43%"


----------
experiment: Intrinsic clearance in human liver microsomes at 0.1 mg/ml after 60 mins; type: ADME, Microsome; conditions: read-out: CLH
OBSERVATION_TYPE: microsomal CLint (µL/min/mg)

[[record]]
smiles_str = "CCCCCn1c(=O)sc2cc(C(=O)C34CC5CC(CC(C5)C3)C4)ccc21"
observation_type = "microsomal CLint"
readout_value = 146


----------
target: UniProt P34972; assay: Agonist activity at human CB2 receptor expressed in CHO cell membranes assessed as [35S]GTPgammaS binding after 1 hr by beta-counting analysis relative to control; assay type: functional
OBSERVATION_TYPE: Emax (%)

[[record]]
smiles_str = "CCCCCn1c(=O)sc2cc(C(=O)C34CC5CC(CC(C5)C3)C4)ccc21"
observation_type = "Emax"
readout_value = 157

[[record]]
smiles_str = "CCCCCn1c(=O)sc2cc(C(=O)C3CCCCC3)ccc21"
observation_type = "Emax"
readout_value = 178

[[record]]
smiles_str = "CCCCn1c(=O)sc2cc(C(=O)C34CC5CC(CC(C5)C3)C4)ccc21"
observation_type = "Emax"
readout_value = 152

[[record]]
smiles_str = "CCCCCCn1c(=O)sc2cc(C(=O)C34CC5CC(CC(C5)C3)C4)ccc21"
observation_type = "Emax"
readout_value = 169

[[record]]
smiles_str = "Cc1c(C(=O)c2cccc3ccccc23)c2cccc3c2n1[C@H](CN1CCOCC1)CO3"
observation_type = "Emax"
readout_value = 181


----------
assay: Aqueous solubility of compound in stimulated gastric fluid after 24 hrs by shake-flask method; assay type: physicochemical; conditions: simulated gastric fluid
OBSERVATION_TYPE: solubility thermodynamic at 24 h (µM)

[[record]]
smiles_str = "CCCCCn1c(=O)sc2cc(C(=O)C34CC5CC(CC(C5)C3)C4)ccc21"
observation_type = "solubility thermodynamic at 24 h"
readout_value = 183


----------
test: Permeability of the compound across apical side to basolateral side in human Caco2 after 60 mins; format: ADME, cell-based; conditions: Caco-2, read-out: permeability
OBSERVATION_TYPE: Papp A→B at 1 h (×10⁻⁶ cm/s)

[[record]]
smiles_str = "CCCCCn1c(=O)sc2cc(C(=O)C34CC5CC(CC(C5)C3)C4)ccc21"
observation_type = "Papp A→B at 1 h"
readout_value = 1.8


----------
molecular target: Cannabinoid receptor 2 (Homo sapiens); assay: Agonist activity at human CB2 receptor expressed in CHO cell membranes assessed as [35S]GTPgammaS binding after 1 hr by beta-counting analysis
Sequence (P34972 whole entry): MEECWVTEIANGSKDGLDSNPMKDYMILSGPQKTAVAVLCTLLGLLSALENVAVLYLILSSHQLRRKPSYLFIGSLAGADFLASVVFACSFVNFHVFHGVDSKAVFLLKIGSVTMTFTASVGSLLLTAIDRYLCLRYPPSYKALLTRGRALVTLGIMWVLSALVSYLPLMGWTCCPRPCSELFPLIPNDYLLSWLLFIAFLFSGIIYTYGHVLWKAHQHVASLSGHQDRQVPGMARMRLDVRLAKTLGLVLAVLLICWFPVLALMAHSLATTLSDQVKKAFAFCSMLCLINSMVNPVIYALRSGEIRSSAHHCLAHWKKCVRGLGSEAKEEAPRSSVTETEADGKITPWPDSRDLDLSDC
OBSERVATION_TYPE: EC50

[[record]]
smiles_str = "CCCCn1c(=O)sc2cc(C(=O)C34CC5CC(CC(C5)C3)C4)ccc21"
observation_type = "EC50"
readout_value = "0.15 µM"

[[record]]
smiles_str = "CCCCCCn1c(=O)sc2cc(C(=O)C34CC5CC(CC(C5)C3)C4)ccc21"
observation_type = "EC50"
readout_value = "0.0328 µM"

[[record]]
smiles_str = "CCCCCn1c(=O)sc2cc(C(=O)C34CC5CC(CC(C5)C3)C4)ccc21"
observation_type = "EC50"
readout_value = "0.0419 µM"

[[record]]
smiles_str = "CCCCCn1c(=O)sc2cc(C(=O)C3CCCCC3)ccc21"
observation_type = "EC50"
readout_value = "0.0415 µM"

